- Target system: hmGluR1 receptor (Homo sapiens)
- Construct: expressed in transfected cells; host or cells: CHO
- Sequence (Q13255 19-1194): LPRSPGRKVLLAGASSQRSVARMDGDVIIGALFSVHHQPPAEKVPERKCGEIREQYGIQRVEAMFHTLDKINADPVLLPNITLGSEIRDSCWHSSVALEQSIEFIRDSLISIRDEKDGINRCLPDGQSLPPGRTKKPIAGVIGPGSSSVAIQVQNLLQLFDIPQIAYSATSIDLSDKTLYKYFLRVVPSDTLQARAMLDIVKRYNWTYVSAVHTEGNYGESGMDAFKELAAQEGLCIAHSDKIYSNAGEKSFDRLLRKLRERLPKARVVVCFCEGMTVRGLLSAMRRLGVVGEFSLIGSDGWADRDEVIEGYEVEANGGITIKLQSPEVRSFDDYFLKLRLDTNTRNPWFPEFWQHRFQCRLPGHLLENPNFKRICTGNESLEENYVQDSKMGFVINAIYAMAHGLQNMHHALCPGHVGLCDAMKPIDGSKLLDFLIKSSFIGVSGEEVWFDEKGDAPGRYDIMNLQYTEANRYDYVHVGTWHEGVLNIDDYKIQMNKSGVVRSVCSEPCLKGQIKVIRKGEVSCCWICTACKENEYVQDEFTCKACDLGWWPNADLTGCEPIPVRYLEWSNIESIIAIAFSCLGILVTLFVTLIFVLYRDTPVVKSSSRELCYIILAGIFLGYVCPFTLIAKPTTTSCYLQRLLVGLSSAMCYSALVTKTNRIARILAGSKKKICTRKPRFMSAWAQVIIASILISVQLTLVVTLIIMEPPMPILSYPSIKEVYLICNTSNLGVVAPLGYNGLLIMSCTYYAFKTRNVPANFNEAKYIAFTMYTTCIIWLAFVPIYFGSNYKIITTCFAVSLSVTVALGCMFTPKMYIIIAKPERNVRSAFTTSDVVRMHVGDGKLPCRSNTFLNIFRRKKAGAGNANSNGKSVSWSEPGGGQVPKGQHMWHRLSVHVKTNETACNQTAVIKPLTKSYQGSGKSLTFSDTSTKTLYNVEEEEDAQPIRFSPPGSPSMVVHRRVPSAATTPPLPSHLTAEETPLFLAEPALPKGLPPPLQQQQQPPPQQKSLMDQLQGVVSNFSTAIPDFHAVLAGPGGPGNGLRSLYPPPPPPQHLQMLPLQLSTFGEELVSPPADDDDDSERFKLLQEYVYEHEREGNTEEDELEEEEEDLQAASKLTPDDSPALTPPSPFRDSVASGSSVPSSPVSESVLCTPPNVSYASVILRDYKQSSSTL
- Assay: IC50 determination: intracellular calcium mobilization (FLIPR) upon Quisqualate stimulation in CHO cell line stably expressing hmGluR1
- Assay type: cell-based
- Reported conditions: CHO cells expressing hmGluR1; against Quisqualate 1 μM (EC80); compounds added 10 minutes before Quisqualate; read-out: mGluR1 IC50 rating
Readout name: IC50

Worked examples, 2 compounds total:
> print(dat)
                                   compound  readout.name     obs.value
1  CNc1ccnc2sc3c(=O)n(-c4ccc(C)cc4)ncc3c12 [Compound 23Q]          IC50  20 to 100 nM
2  CCNc1ccnc2sc3c(=O)n(-c4ccc(Cl)cc4)ncc3c12 [Compound 23K]          IC50  20 to 100 nM

// switching to the query compound
input: Please look up its IC50: O=c1c2sc3nccc(NC4CC4)c3c2cnn1-c1ccc(Cl)cc1 [Compound 23A]
output: < 20 nM
